- Test system: Enterococcus faecalis
- ASSAY PROCEDURE: Minimum inhibitory concentration of Enterococcus faecalis growth.
- Format: functional
# MIC per entry

Known MIC results, listed for orientation:
INSERT INTO measurements (chemical_smiles, experimental_readout, val) VALUES
  ('O=[N+]([O-])c1cccc(CN(CCNCCCO)Cc2cccc(CN(Cc3cccc([N+](=O)[O-])c3)Cc3cccc([N+](=O)[O-])c3)n2)c1', 'MIC', '> 100 µM'),
  ('COC(=O)c1cccc(CN(Cc2cccc(C(F)(F)F)c2)Cc2cccc(CN(CCNCCCO)Cc3cccc(C)c3)n2)c1', 'MIC', '6 µM'),
  ('Cc1cccc(CN(CCNCCCO)Cc2cccc(CN(Cc3cccc(F)c3)Cc3cccc(C(F)(F)F)c3)n2)c1', 'MIC', '6 µM'),
  ('COC(=O)c1cccc(CN(CCNCCCO)Cc2cccc(CN(Cc3cccc(C(=O)OC)c3)Cc3cccc(C(=O)OC)c3)n2)c1', 'MIC', '> 100 µM'),
  ('Cc1cccc(CN(CCNCCCO)Cc2cccc(CN(Cc3ccccc3)Cc3cccc(C(F)(F)F)c3)n2)c1', 'MIC', '6 µM'),
  ('Cc1cccc(CN(CCNCCCO)Cc2cccc(CN(Cc3cccc([N+](=O)[O-])c3)Cc3cccc(C(F)(F)F)c3)n2)c1', 'MIC', '6 µM');

State its MIC for this molecule: `OCCCNCCN(Cc1cccc(C(F)(F)F)c1)Cc1cccc(CN(Cc2ccccc2)Cc2cccc(C(F)(F)F)c2)n1`
12 µM

Give recorded MIC. `COC(=O)c1cccc(CN(Cc2cccc(C(F)(F)F)c2)Cc2cccc(CN(CCNCCCO)Cc3cccc(C(F)(F)F)c3)n2)c1`
6 µM

Quick one: give measured MIC for `OCCCNCCN(Cc1cccc(C(F)(F)F)c1)Cc1cccc(CN(Cc2cccc(C(F)(F)F)c2)Cc2cccc(C(F)(F)F)c2)n1`
> 100 µM

Report measured MIC; entry is `Cc1cccc(CN(Cc2cccc(C(F)(F)F)c2)Cc2cccc(CN(CCNCCCO)Cc3cccc(C(F)(F)F)c3)n2)c1`
6 µM

Recall and state the measured MIC for `OCCCNCCN(Cc1cccc(C(F)(F)F)c1)Cc1cccc(CN(Cc2cccc(F)c2)Cc2cccc(C(F)(F)F)c2)n1` .
6 µM

All figures here come from ChEMBL document CHEMBL1131483.
